Target: SARS-COV-2 Wuhan Reference RBD (SARS-CoV-2, UniProt P0DTC2 319-541)
Assay: ELISA, RBD coated
Test readout: EC50 (nM)

Binder	Unit tag	Numeric value
PP1099 MBP-5HVZ-PAPA-RN-12-H6 (VHH, Form: Dimer) VHH: QVQLVESGGGLVQPGGSLRLSCAASGSSFEGNAVHWFRQAPGKNREFVATITTSTSYYYADSVKGRFTISRDNAKNTVYLQMNSLKPEDTAVYYCAARLKDRGPQSEYDYWGQGTQVTVSS	nM	4.24
PP927 MBP-5HVZ-R1i-C8-H6 (VHH, Form: Dimer) VHH: QVQLVESGGGLVQPGGSLRLSCAASGRQFGAWRMHWYRQAPGKQREWVAGITSGTSGNYADSVKGRFTISRDNAKNTVYLQMNSLKPEDTAVYYCAATSHTTYHAEYWGQGTQVTVSS	nM	1.43
